- Measured target: human P450 1A2 (Homo sapiens)
- Sequence (P05177 whole entry): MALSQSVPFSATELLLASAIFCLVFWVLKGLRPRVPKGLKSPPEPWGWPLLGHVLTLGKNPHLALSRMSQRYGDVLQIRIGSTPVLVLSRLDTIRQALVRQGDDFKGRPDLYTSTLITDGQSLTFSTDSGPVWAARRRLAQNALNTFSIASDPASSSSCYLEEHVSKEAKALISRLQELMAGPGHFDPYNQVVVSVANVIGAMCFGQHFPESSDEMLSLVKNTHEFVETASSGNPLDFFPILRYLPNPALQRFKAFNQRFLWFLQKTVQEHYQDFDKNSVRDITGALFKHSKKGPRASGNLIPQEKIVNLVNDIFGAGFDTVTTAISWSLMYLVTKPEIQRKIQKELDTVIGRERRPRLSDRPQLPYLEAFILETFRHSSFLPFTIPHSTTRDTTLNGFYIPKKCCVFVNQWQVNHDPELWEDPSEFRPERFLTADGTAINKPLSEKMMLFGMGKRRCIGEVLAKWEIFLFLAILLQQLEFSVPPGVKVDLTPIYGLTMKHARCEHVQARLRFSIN
- Assay procedure: Methoxyresorufin O-demethylation
- Format: biochemical
- Protocol conditions: compounds of this study; log conversion of the IC50
The reader will find reported Actual (EL) logIC50 (9-logIC50), P450 1A2 values listed item by item below.
Give the figure by itself; no unit, no explanation.

Below, each entry is followed by its recorded Actual (EL) logIC50 (9-logIC50), P450 1A2 result.
C#CCOc1cccc2oc(-c3ccccc3)cc(=O)c12: 6.4202
O=c1cc(-c2ccc(O)cc2)oc2ccccc12 [4′-HF, reference compound]: 5.1858
C#CCOc1ccc(-c2cc(=O)c3ccccc3o2)cc1: 5.8962
O=c1cc(-c2cccc(O)c2)oc2ccccc12 [3′-HF, reference compound]: 5.0353
C#CCOc1cccc(-c2cc(=O)c3ccccc3o2)c1: 6.1739
O=c1cc(-c2ccccc2)oc2ccc(O)cc12 [Compound 6-HF, reference compound]: 5.1599
C#CCOc1ccccc1-c1cc(=O)c2ccccc2o1: 5.8894

# evaluate next
Entry O=c1cc(-c2ccccc2O)oc2ccccc12 [2′-HF, reference compound] : reported Actual (EL) logIC50 (9-logIC50), P450 1A2 = ?
5.0273
